Experiment: Total clearance in cynomolgus monkey at 0.5 mg/kg, iv
Format: ADME, organism-based, Macaca fascicularis
Design: dose 0.5 mg/kg, route intravenous
Details: in vivo
assay.readout: clearance (mL/min/kg)

> print(dat)
                                   compound  assay.readout  readout.number
1  CCc1cc2c(cc1N1CCC(N3CCOCC3)CC1)C(C)(C)c1[nH]c3cc(C#N)ccc3c1C2=O [ALECTINIB]      clearance            6.04
